- testDetails: Cmax in female mouse at 20 mg/kg, po after 24 hrs
- Type: ADME, organism-based
- Set-up: dose 20 mg/kg, route oral
- reportedConditions: in vivo
propertyName: Cmax (ng/mL)
Give bare numbers, in ng/mL.

Which measured Cmax value corresponds to `COCCN1CCC(C(=O)NO)(S(=O)(=O)c2ccc(Oc3ccc(OC(F)(F)F)cc3)cc2)CC1` ?
41000

---

Protein target, amino acids: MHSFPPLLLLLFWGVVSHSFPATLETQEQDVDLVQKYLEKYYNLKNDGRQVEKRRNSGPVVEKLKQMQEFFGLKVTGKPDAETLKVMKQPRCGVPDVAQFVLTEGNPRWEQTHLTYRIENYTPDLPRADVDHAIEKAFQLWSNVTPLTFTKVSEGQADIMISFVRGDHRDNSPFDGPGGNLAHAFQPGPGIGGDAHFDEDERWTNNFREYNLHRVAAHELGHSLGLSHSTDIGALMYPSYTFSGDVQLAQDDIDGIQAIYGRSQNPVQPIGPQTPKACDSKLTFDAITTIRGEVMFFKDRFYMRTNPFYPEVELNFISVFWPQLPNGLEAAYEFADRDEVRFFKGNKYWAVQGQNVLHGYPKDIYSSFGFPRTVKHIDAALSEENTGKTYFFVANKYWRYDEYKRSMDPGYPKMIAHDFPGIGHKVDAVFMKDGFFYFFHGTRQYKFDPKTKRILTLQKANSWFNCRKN
I'd appreciate it if you could supply pIC50 values for the items below.
Numbers only, as −log10 of the molar value.

# molecularString, pIC50
rows = [
    ("O=C(NO)C1(S(=O)(=O)c2ccc(Oc3ccc4c(c3)OCCO4)cc2)CCN(C2CC2)CC1", 5.22),
    ("CC(C)Oc1ccc(Oc2ccc(S(=O)(=O)C3(C(=O)NO)CCOCC3)cc2)cc1", 6.52),
    ("COCCN1CCC(C(=O)NO)(S(=O)(=O)c2ccc(Oc3ccc4c(c3)OCO4)cc2)CC1", 5.62),
    ("O=C(NO)C1(S(=O)(=O)c2ccc(Oc3ccc(O)cc3)cc2)CCOCC1", 6.40),
    ("O=C(NO)C1(S(=O)(=O)c2ccc(Oc3ccc(OC(F)(F)F)cc3)cc2)CCNCC1", 5.00),
]

Next:
Give its pIC50 value. Item: `O=C(NO)C1(S(=O)(=O)c2ccc(Oc3ccc(OC(F)(F)F)cc3)cc2)CCN(Cc2cccnc2)CC1`
5.34

---

These compounds were tested on Collagenase 3 (Homo sapiens, UniProt P45452); IC50 is the recorded read-out.
Answers are plain numbers, in nM.

# molecularString, propertyName, quantitativeReadout
records = [
    ("COCCN1CCC(C(=O)NO)(S(=O)(=O)c2ccc(Oc3ccc(OC(C)C)cc3)cc2)CC1", "IC50", 0.5),
]

Shift focus to the following entry.
For `C#CCN1CCC(C(=O)NO)(S(=O)(=O)c2ccc(Oc3ccc(OC(F)(F)F)cc3)cc2)CC1` , what is its reported IC50?
0.2

---

- testDetails: Oral bioavailability in male rat at 20 mg/kg after 24 hrs
- Format: ADME, organism-based
- reportedConditions: in vivo
propertyName: bioavailability (%)
Give bare numbers, in %.

For the compound `COCCN1CCC(C(=O)NO)(S(=O)(=O)c2ccc(Oc3ccc(OC(F)(F)F)cc3)cc2)CC1` , what bioavailability is on record?
66.6

---

- tgt: UniProtKB P50281
propertyName: pIC50
Answers are plain numbers, as −log10 of the molar value.

# per-item lookup of pIC50; items listed below
1. O=C(NO)C1(S(=O)(=O)c2ccc(Oc3ccc(OC(F)(F)F)cc3)cc2)CCOCC1
2. COCCN1CCC(C(=O)NO)(S(=O)(=O)c2ccc(Oc3ccc4c(c3)OCO4)cc2)CC1
3. O=C(NO)C1(S(=O)(=O)c2ccc(Oc3ccc(C(F)(F)F)cc3)cc2)CCNCC1

7.97
8.40
6.80

---

- testDetails: Half life in rat at 10 mg/mL, iv and po
- Assay type: ADME, organism-based
- reportedConditions: in vivo
propertyName: half-life
Express the reported value numerically, then name its unit.

As a guide, the following entries are already answered.
# molecularString, propertyName, result
measured = [
    ("O=C(NO)C1(S(=O)(=O)c2ccc(Oc3ccc(SC(F)(F)F)cc3)cc2)CCOCC1", "half-life", "1.71 h"),
    ("O=C(NO)C1(S(=O)(=O)c2ccc(Oc3ccc(Cl)cc3)cc2)CCOCC1", "half-life", "1.5 h"),
    ("O=C(NO)C1(S(=O)(=O)c2ccc(Oc3ccc(OC(F)(F)F)cc3)cc2)CCOCC1", "half-life", "1.87 h"),
    ("O=C(NO)C1(S(=O)(=O)c2ccc(Oc3ccccc3)cc2)CCOCC1", "half-life", "1.74 h"),
    ("O=C(NO)C1(S(=O)(=O)c2ccc(Oc3ccncc3)cc2)CCOCC1", "half-life", "0.25 h"),
    ("O=C(NO)C1(S(=O)(=O)c2ccc(Oc3ccc(C(F)(F)F)cc3)cc2)CCOCC1", "half-life", "2.68 h"),
]

Query compound follows.
Field request: half-life | item: `O=C(NO)C1(S(=O)(=O)c2ccc(Oc3cccc(C(F)(F)F)c3)cc2)CCOCC1`
1.12 h

---

- testDetails: Cmax in cynomolgus monkey at 20 mg/kg, po after 24 hrs
- Format: ADME, organism-based, Macaca fascicularis
- Design: dose 20 mg/kg, route oral
- reportedConditions: in vivo
propertyName: Cmax (ng/mL)
One number for each entry, in ng/mL.

Which Cmax reading was recorded for the molecule `COCCN1CCC(C(=O)NO)(S(=O)(=O)c2ccc(Oc3ccc(OC(F)(F)F)cc3)cc2)CC1` ?
37100

---

- testDetails: Tmax in cynomolgus monkey at 20 mg/kg, po after 24 hrs
- Assay type: ADME, organism-based, Macaca fascicularis
- Set-up: dose 20 mg/kg, route oral
- reportedConditions: in vivo
propertyName: Tmax (h)
Answers are plain numbers, in h.

Item `COCCN1CCC(C(=O)NO)(S(=O)(=O)c2ccc(Oc3ccc(OC(F)(F)F)cc3)cc2)CC1` has what recorded Tmax?
1.67

---

Observed IC50, system UniProtKB P03956.
Answers are plain numbers, in µM.

# molecularString, quantitativeReadout
records = [
    ("COc1ccc(Oc2ccc(S(=O)(=O)C3(C(=O)NO)CCN(Cc4ccccn4)CC3)cc2)cc1", 4.5),
    ("CSc1ccc(Oc2ccc(S(=O)(=O)C3(C(=O)NO)CCOCC3)cc2)cc1", 2.5),
    ("O=C(NO)C1(S(=O)(=O)c2ccc(Oc3ccc(-c4ccccc4)cc3)cc2)CCOCC1", 1.4),
]

Read the next record carefully.
Form field: reported IC50 of `CCOCCN1CCC(C(=O)NO)(S(=O)(=O)c2ccc(Oc3ccc(OC(F)(F)F)cc3)cc2)CC1`
5.9

---

Consider the following compounds; for each one, report its IC50.
- tgt: Neutrophil collagenase (Homo sapiens, UniProt P22894)
- Sequence (P22894 whole entry): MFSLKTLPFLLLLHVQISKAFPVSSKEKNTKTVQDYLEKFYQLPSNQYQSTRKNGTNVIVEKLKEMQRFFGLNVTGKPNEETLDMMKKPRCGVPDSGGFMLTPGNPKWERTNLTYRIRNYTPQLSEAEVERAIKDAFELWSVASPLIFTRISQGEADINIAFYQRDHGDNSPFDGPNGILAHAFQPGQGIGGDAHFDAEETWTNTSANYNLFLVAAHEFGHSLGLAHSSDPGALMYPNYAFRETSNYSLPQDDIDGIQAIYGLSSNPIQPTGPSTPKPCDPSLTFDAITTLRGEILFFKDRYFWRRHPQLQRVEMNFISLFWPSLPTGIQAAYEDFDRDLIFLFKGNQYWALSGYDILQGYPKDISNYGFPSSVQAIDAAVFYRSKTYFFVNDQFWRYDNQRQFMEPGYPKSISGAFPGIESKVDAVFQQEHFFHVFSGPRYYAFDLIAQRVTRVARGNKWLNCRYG
Give bare numbers, in nM.

A selection of reference data follows.
# molecularString, tgt, propertyName, readoutUnits, quantitativeReadout
rows = [
    ("O=C(NO)C1(S(=O)(=O)c2ccc(Oc3cccc(C(F)(F)F)c3)cc2)CCOCC1", "Neutrophil collagenase (Homo sapiens, UniProt P22894)", "IC50", "nM", 30),
    ("CC(=O)N1CCC(C(=O)NO)(S(=O)(=O)c2ccc(Oc3ccc(OC(F)(F)F)cc3)cc2)CC1", "Neutrophil collagenase (Homo sapiens, UniProt P22894)", "IC50", "nM", 1.6),
    ("O=C(NO)C1(S(=O)(=O)c2ccc(Oc3ccc(OC(F)(F)F)cc3)cc2)CCN(Cc2cccnc2)CC1", "Neutrophil collagenase (Homo sapiens, UniProt P22894)", "IC50", "nM", 1.5),
    ("O=C(NO)C1(S(=O)(=O)c2ccc(Oc3ccc(Cl)c(Cl)c3)cc2)CCOCC1", "Neutrophil collagenase (Homo sapiens, UniProt P22894)", "IC50", "nM", 4),
    ("COCCN1CCC(C(=O)NO)(S(=O)(=O)c2ccc(Oc3ccc(OC(F)(F)F)cc3)cc2)CC1", "Neutrophil collagenase (Homo sapiens, UniProt P22894)", "IC50", "nM", 1.7),
    ("O=C(NO)C1(S(=O)(=O)c2ccc(Oc3ccc(OC(F)(F)F)cc3)cc2)CCNCC1", "Neutrophil collagenase (Homo sapiens, UniProt P22894)", "IC50", "nM", 0.7),
]

Now for another entry.
Recorded IC50 for `COc1ccc(Oc2ccc(S(=O)(=O)C3(C(=O)NO)CCN(Cc4ccccn4)CC3)cc2)cc1` , please?
1.9

---

- tgt: UniProt P45452
pIC50: −log10 of the molar value.
propertyName: pIC50

# molecularString, pIC50
rows = [
    ("CC(C)N1CCC(C(=O)NO)(S(=O)(=O)c2ccc(Oc3ccc(OC(F)(F)F)cc3)cc2)CC1", "> 10.00"),
    ("COCCN1CCC(C(=O)NO)(S(=O)(=O)c2ccc(Oc3ccc(OC(F)(F)F)cc3)cc2)CC1", "> 10.00"),
]

Here is the next item to consider.
Any idea what pIC50 was measured for `CSc1ccc(Oc2ccc(S(=O)(=O)C3(C(=O)NO)CCOCC3)cc2)cc1` ?
> 10.00
